- PROTOCOL: soluble on expression in E. coli; label from the status in PepcDB or PDB records
OUTCOME_MEASURE: soluble on expression in E. coli

RESIDUE_CODES	READOUT_VALUE
MSDNNTLRMAEMLDKQNSRQHDFMKLMMEMNNSARLSDQARDDRNAIRNENNLKEVFNKLIEAQKEESPIDISIKIRR	not soluble
KKHILVYNEEADEALRQIKADRIELHQSFKASFERLNEIQQLAYTNAMTRDAALIQEPDFDPEQLESDYYRNLYRINTRRDNLNTHRALEN	not soluble
MGSDKIHHHHHHCGGSGSSEPVAPTTTPDTGFSFAATAMITNLTQEVIVTGYADLAAKGSELVLATQKLINSTSQADLVAAQDAWKAARQPWEQGESHIFGPVDSLSIDPHLDSWPLNTTDLSTQLTTAAGFDAETIKSWNDDVQGFHTMEYLLFGDGVADNTKDISELTVKEREYLIALAQVFRDHAKTLDDAWQINHKPDDANAKPYAELLSQPGVDGNTVYSSELAVIEELINGMIGIVDEVGNGKISDPFGDSITSADTSKVESQYSWNSLTDFANNIQGVRNVYQGEFTGNTDKQGVKDFVSAADANLAVRVASEIDDAIIKIQAISGSNSMPFRQAIKDANGRVRIQTAIDALTKLKTSLESDVIPLLSKWKPA	not soluble
